target: Melanocortin receptor 4 (Mus musculus); assay: Antagonist activity at mouse MC4R expressed in HEK293 cells assessed as reduction in NDP-MSH-induced response incubated for 2 hrs by AlphaScreen cAMP assay based Schild analysis; type: functional, cell-based; settings: read-out: pA2 (converted)
Sequence (P56450 whole entry): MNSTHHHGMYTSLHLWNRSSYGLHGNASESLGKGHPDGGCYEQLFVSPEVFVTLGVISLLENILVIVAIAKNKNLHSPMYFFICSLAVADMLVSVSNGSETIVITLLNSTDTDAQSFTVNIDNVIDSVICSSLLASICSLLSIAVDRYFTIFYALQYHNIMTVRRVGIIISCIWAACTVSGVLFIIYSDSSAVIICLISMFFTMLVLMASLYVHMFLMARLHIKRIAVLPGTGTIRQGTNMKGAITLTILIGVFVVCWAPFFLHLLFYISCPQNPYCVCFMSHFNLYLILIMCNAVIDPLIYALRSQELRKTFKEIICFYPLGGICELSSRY
Square brackets hold non-standard residues; d marks the D form. Peptide text beside a SMILES is read from it. Nle = CCCC[C@H](N)C(=O)O; Dap = NC[C@H](N)C(=O)O

{"compound": "CCCC[C@@H]1NC(=O)[C@H](CO)NC(=O)[C@H](CN)NC(=O)[C@H](Cc2ccccc2)NC(=O)[C@H](Cc2ccccc2)NC(=O)[C@H](CCCNC(=N)N)NC(=O)[C@@H]2CCCN2C(=O)[C@H]2CCCN2C1=O (cyclo(RFF[Dap]S[Nle][dP]P))", "units_label": "pM", "Kb": 794}
{"compound": "CCCC[C@@H]1NC(=O)[C@H](CO)NC(=O)[C@H](CCCNC(=N)N)NC(=O)[C@H](Cc2ccccc2)NC(=O)[C@H](Cc2ccccc2)NC(=O)[C@H](CCCNC(=N)N)NC(=O)[C@@H]2CCCN2C(=O)[C@H]2CCCN2C1=O (cyclo(RFFRS[Nle][dP]P))", "units_label": "pM", "Kb": 251}
